- System: U2OS
- PROTOCOL: Multiplex assay against U2OS
- Type: toxicity, cell-based
- CONDITION_INFO: human, 24 h, 1 µM, compound concentration 1 uM, replicate 1

COMPOUND	READOUT_UNIT	Population Fragmented Nuclei (%)
S=C(NCCCc1c[nH]cn1)NCCCN(Cc1ccc(Cl)c(Cl)c1)c1ccc(Br)cn1	%	22
COc1cc(C(=O)N2CC[C@@H](O)[C@@H](N)C2)cc2nc(-c3cc4ccccc4n3CC3CC3)n(C)c12.Cl	%	28
Cc1ccc(OCC(O)C(C)NC(C)C)c2c1CCC2.Cl (centres undefined)	%	14
O=C(NCCNCC(O)COc1ccc(O)cc1)N1CCOCC1.O=C(NCCNCC(O)COc1ccc(O)cc1)N1CCOCC1.O=C(O)/C=C/C(=O)O (centres undefined) [XAMOTEROL FUMARATE]	%	24
O=C(Nc1cc(-c2ccccc2)nn1-c1ccccc1F)c1ccc([N+](=O)[O-])cc1	%	24
O=c1ccc2ccc(OCCCCN3CCN(c4cccc5sccc45)CC3)cc2[nH]1	%	26
O=c1nc2[nH]c3ccccc3nc-2c(=O)[nH]1	%	24
CN1CCC(C(=O)c2cccc(NC(=O)c3c(F)cc(F)cc3F)n2)CC1	%	22
CN(C)C/C=C/C(=O)Nc1ccc(C(=O)N2CCCC(Nc3ncc(Cl)c(-c4c[nH]c5ccccc45)n3)C2)cc1 (centres undefined)	%	34

----------
- System: U2OS
- PROTOCOL: Multiplex assay against U2OS
- Type: toxicity, cell-based
- CONDITION_INFO: human, 48 h, 1 µM, compound concentration 1 uM, replicate 1
Mark t for Population Fragmented Nuclei (%) under 20%, f if at or over.

COMPOUND	CLASS_ASSIGNMENT
CCCCCCNC(=O)Nc1ccc(S(=O)(=O)Nc2ccc(CCNC[C@H](O)COc3ccc(O)cc3)cc2)cc1	t
CC(C)(C)c1ccc(CSc2cnn(C(C)(C)C)c(=O)c2Cl)cc1	f
CCC(=O)OCC(=O)[C@@]1(OC(=O)CC)[C@@H](C)C[C@H]2[C@@H]3CCC4=CC(=O)C=C[C@]4(C)[C@@]3(Cl)[C@@H](O)C[C@@]21C [BECLOMETHASONE DIPROPIONATE]	f
CC(C)(O)C(=O)N1CCN(c2ccc(C(F)(F)F)c(C3=C(c4c[nH]c5ccccc45)C(=O)NC3=O)c2)CC1	f
CN(C)C(=O)Cn1cc(-c2ccc(-c3nnc4ccccn34)cc2)cn1	t
CN1CCN(c2ccc(Nc3c4ccccc4nc4ccccc34)cc2)CC1.Cl.Cl.O	f
CN(C)C/C=C/C(=O)Nc1ccc(C(=O)N2CCCC(Nc3ncc(Cl)c(-c4c[nH]c5ccccc45)n3)C2)cc1 (centres undefined)	f
COCCn1c(C)c(C)s/c1=N\C(=O)C1C(C)(C)C1(C)C	t

----------
- System: Fibroblast
- PROTOCOL: Multiplex assay against human fibroblast
- Format: toxicity, cell-based
- CONDITION_INFO: 24 h, 10 µM, compound concentration 10 uM, replicate 1
Entries and their measured Population Fragmented Nuclei (%) follow.

MOLECULE	ASSAY_SYSTEM	Population Fragmented Nuclei (%)
CN(C)C/C=C/C(=O)Nc1ccc(C(=O)N2CCCC(Nc3ncc(Cl)c(-c4c[nH]c5ccccc45)n3)C2)cc1 (stereo not given)	Fibroblast	13
COc1ccc2[nH]c(I)c(CCNC(C)=O)c2c1	Fibroblast	16
CCCCCCNC(=O)Nc1ccc(S(=O)(=O)Nc2ccc(CCNC[C@H](O)COc3ccc(O)cc3)cc2)cc1	Fibroblast	21
Cc1ccc(OCC(O)C(C)NC(C)C)c2c1CCC2.Cl (stereo not given)	Fibroblast	39
Cc1cc(-c2ccc3c(c2)CC[C@H]3N2CC3(CCN(C(=O)Cc4cn5cc(C)sc5n4)CC3)C2)ncn1	Fibroblast	19
Cc1cc(=O)n(C)c2cc(N3C(=O)CC[C@H](NS(=O)(=O)CC(C)C)[C@H]3c3ccc(Cl)cc3)ccc12	Fibroblast	14
O=C(Nc1cc(-c2ccccc2)nn1-c1ccccc1F)c1ccc([N+](=O)[O-])cc1	Fibroblast	7
COCCCN1CCC(NC(=O)c2cc(Cl)c(N)c3c2OCC3)CC1 [PRUCALOPRIDE]	Fibroblast	10
Cl.Cl.OCCOCCN1CCN(C(c2ccccc2)c2ccc(Cl)cc2)CC1 (stereo not given) [HYDROXYZINE HYDROCHLORIDE]	Fibroblast	28
COc1cc(C(=O)N2CC[C@@H](O)[C@@H](N)C2)cc2nc(-c3cc4ccccc4n3CC3CC3)n(C)c12.Cl	Fibroblast	15
C=CCN1C[C@H](C(=O)N(CCCN(C)C)C(=O)NCC)C[C@@H]2c3cccc4[nH]cc(c34)C[C@H]21	Fibroblast	28
COc1ccc2c(c1OCc1ccccc1)C[C@@H](C(=O)O)N(C(=O)C(c1ccccc1)c1ccccc1)C2	Fibroblast	10
CN1C[C@H](C(=O)N[C@]2(C)O[C@@]3(O)[C@@H]4CCCN4C(=O)[C@H](Cc4ccccc4)N3C2=O)C[C@@H]2c3cccc4[nH]cc(c34)C[C@H]21.CS(=O)(=O)O [DIHYDROERGOTAMINE MESYLATE]	Fibroblast	17
CCC(=O)OCC(=O)[C@@]1(OC(=O)CC)[C@@H](C)C[C@H]2[C@@H]3CCC4=CC(=O)C=C[C@]4(C)[C@@]3(Cl)[C@@H](O)C[C@@]21C [BECLOMETHASONE DIPROPIONATE]	Fibroblast	13
Cc1nn(C)c2nc(NNC(=O)Nc3cc(Cl)nc(Cl)c3)cc(C(C)C)c12	Fibroblast	12

----------
- Tested on: U2OS
- PROTOCOL: Multiplex assay against U2OS
- Type: toxicity, cell-based
- CONDITION_INFO: human, 24 h, 10 µM, compound concentration 10 uM, replicate 1
PROPERTY_NAME: Population Mitochondria Different-Phenotype (%)

> print(dat)
                                   compound  readout.unit  recorded.number
1  Cc1cc(-c2ccc3c(c2)CC[C@H]3N2CC3(CCN(C(=O)Cc4cn5cc(C)sc5n4)CC3)C2)ncn1 [PF-5190457]             %                0
2  Cc1cc(=O)n(C)c2cc(N3C(=O)CC[C@H](NS(=O)(=O)CC(C)C)[C@H]3c3ccc(Cl)cc3)ccc12             %               40
3  COc1c(Nc2ccc(S(C)(=O)=O)nc2C)ncnc1OC1CCN(C(=O)OC(C)C)CC1 [ADP-597]             %                2
4  Cn1cc(C(=O)OCC2CCN(CCNS(C)(=O)=O)CC2)c2ccccc21             %                5
5  COC(c1ccccc1)(c1ccccc1)[C@H](Oc1nc(C)cc(C)n1)C(=O)O [AMBRISENTAN]             %                2
6  Cc1c(Cc2ccc3ccccc3n2)c2cc(F)ccc2n1CC(=O)O [TIMAPIPRANT]             %                2
7  O=C(O)CCC/C=C\CC1C(O)CC(O)C1/C=C/C(O)COc1cccc(Cl)c1 (stereo not drawn) [CLOPROSTENOL]             %                2
8  Cc1sc2c(c1C)C(c1ccc(Cl)cc1)=N[C@H](CC(=O)OC(C)(C)C)c1nnc(C)n1-2             %               17

----------
- System: U2OS
- PROTOCOL: Multiplex assay against U2OS
- Assay type: toxicity, cell-based
- CONDITION_INFO: human, 48 h, 1 µM, compound concentration 1 uM, replicate 2
Entries and their measured Population Normal (%) follow.
PROPERTY_NAME: Population Normal (%)

> print(dat)
                                   compound  assay.system  readout.unit  recorded.number
1  COc1ccc2c(c1OCc1ccccc1)C[C@@H](C(=O)O)N(C(=O)C(c1ccccc1)c1ccccc1)C2          U2OS             %               95
2  CN1CCN2c3ccccc3Cc3ccccc3C2C1.Cl (stereo not drawn) [MIANSERIN HYDROCHLORIDE]          U2OS             %               98
3  COCCCN1CCC(NC(=O)c2cc(Cl)c(N)c3c2OCC3)CC1 [PRUCALOPRIDE]          U2OS             %               97
4  Cc1sc2c(c1C)C(c1ccc(Cl)cc1)=N[C@H](CC(=O)OC(C)(C)C)c1nnc(C)n1-2          U2OS             %               96
5  CN1CCC(C(=O)c2cccc(NC(=O)c3c(F)cc(F)cc3F)n2)CC1          U2OS             %               94
6  CCCCCCNC(=O)Nc1ccc(S(=O)(=O)Nc2ccc(CCNC[C@H](O)COc3ccc(O)cc3)cc2)cc1          U2OS             %               95
7  CC(C)(C)c1ccc(CSc2cnn(C(C)(C)C)c(=O)c2Cl)cc1          U2OS             %               93
8  O=c1ccc2ccc(OCCCCN3CCN(c4cccc5sccc45)CC3)cc2[nH]1          U2OS             %               97

From: ChEMBL document CHEMBL5058577
